assay: recombinant UMI read abundance after kanamycin selection (control-corrected) (log10(CPM+1)); higher = more efficient recombination; extreme values may be limits of the assay; sequences stand for … in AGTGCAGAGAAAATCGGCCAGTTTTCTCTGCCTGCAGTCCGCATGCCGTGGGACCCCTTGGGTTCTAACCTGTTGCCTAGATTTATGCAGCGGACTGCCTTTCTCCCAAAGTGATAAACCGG…AGGTTGGTTTCACT; site = the 11-nt donor
The sequences listed here are annotated with their recombinant UMI read abundance (log10).
Please reply with the number alone, leaving off any unit.

{"CHAIN": "CTAATATCATGGACCGGTTTTCCCGGTAATCCGTATTTGTC (site CTAGTATCTGT)", "REPORTED_MEASUREMENT": 1.1}
{"CHAIN": "GATTGGACATGGACCGGTTTTCCCGGTAATCCGTATTTGCC (site GATTGGACTGC)", "REPORTED_MEASUREMENT": 0}
{"CHAIN": "GTCGAACCATGGACCGGTTTTCCCGGTAATCCGTATTTGAC (site GTCGAACCTGT)", "REPORTED_MEASUREMENT": 0}
{"CHAIN": "GGGGCTCCATGGACCGGTTTTCCCGGTAATCCGTATTTGCA (site GGGGCACCTTG)", "REPORTED_MEASUREMENT": 0.0623}

// moving on: another record for recombinant UMI read abundance (log10)
Asked: Value lookup for recombinant UMI read abundance (log10); key = CGGTAACCATGGACCGGTTTTCCCGGTAATCCGTATTTGAT (site CGGCAACCTAT)
Given back: 0.00415

====

test: recombinant barcode read abundance after kanamycin selection (control-corrected) (log10(CPM+1)); higher = more efficient recombination; sequences stand for … in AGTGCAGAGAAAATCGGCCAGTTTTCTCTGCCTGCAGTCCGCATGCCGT…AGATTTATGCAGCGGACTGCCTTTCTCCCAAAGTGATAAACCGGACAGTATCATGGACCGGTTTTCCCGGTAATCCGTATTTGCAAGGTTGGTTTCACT; site = the 11-nt target
MEASURE_NAME: recombinant barcode read abundance (log10)
Give the figure by itself; no unit, no explanation.

Please review the following examples before continuing.
{"CHAIN": "GGTTGTCCTTGGGTTCTAACCTGTTGCGG (site GGTTGGCCTCC)", "REPORTED_MEASUREMENT": 0.109}
{"CHAIN": "AATGGGGCTTGGGTTCTAACCTGTTGCTG (site TATGGAGCTCA)", "REPORTED_MEASUREMENT": 0.0813}
{"CHAIN": "CTCTTGTCTTGGGTTCTAACCTGTTGCTG (site CTCGTGTCTCT)", "REPORTED_MEASUREMENT": 0.0114}
{"CHAIN": "GGTTCCTCTTGGGTTCTAACCTGTTGCCT (site GGTTCCTCTAG)", "REPORTED_MEASUREMENT": 1.11}

Asked: Given the sequence TCACACACTTGGGTTCTAACCTGTTGCCT (site CTCAGACCTCA) , what is its reported recombinant barcode read abundance (log10)?
Given back: 0.0319

Asked: Same lookup for CGTACCGCTTGGGTTCTAACCTGTTGCCT (site CGTACCGCTAG) , please.
Given back: 0.496

Asked: Try this sequence too: CACTGTTCTTGGGTTCTAACCTGTTGCCT (site CACTGATCTAG)
Given back: 0.325

Asked: Could you do the same for CAGGCGGCTTGGGTTCTAACCTGTTGCCT (site CAGGCGGCTAG) , please?
Given back: 0.829

Asked: And what about the sequence GTCCGTCCTTGGGTTCTAACCTGTTGCAT (site GTCCGTCCTAT) ?
Given back: 1.77

====

experiment: recombinant barcode read abundance after kanamycin selection (control-corrected) (log10(CPM+1)); higher = more efficient recombination; sequences stand for … in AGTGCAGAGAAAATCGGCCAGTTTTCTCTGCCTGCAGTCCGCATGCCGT…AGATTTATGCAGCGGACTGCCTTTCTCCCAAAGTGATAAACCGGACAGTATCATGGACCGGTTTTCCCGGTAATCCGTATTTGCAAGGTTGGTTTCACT; site = the 11-nt target
MEASURE_NAME: recombinant barcode read abundance (log10)

Past entries and their recorded results:
{"CHAIN": "ACTTTGCCTTGGGTTCTAACCTGTTGCCT (site ACTTTGCCTAG)", "REPORTED_MEASUREMENT": 0.953}
{"CHAIN": "TCAGCGACTTGGGTTCTAACCTGTTGCCT (site TCGGCGACTAG)", "REPORTED_MEASUREMENT": 0.27}
{"CHAIN": "ATATACGCTTGGGTTCTAACCTGTTGCCT (site CTATAGGCTAG)", "REPORTED_MEASUREMENT": 0.0578}

Asked: Which recombinant barcode read abundance (log10) value is on record for GTAAGTCCTTGGGTTCTAACCTGTTGCAG (site GTAAGAACTCT) ?
Given back: 0.0477

Asked: Now the sequence CTAGACTCTTGGGTTCTAACCTGTTGCAA (site CTAGACTCTAT)
Given back: 0.644

Asked: Now try GTTCAAACTTGGGTTCTAACCTGTTGCAT (site ATTCAAACTAG) .
Given back: 0.245

====

recombinant UMI read abundance (log10) values for the sequences below.
experiment: recombinant UMI read abundance after kanamycin selection (control-corrected) (log10(CPM+1)); higher = more efficient recombination; extreme values may be limits of the assay; sequences stand for … in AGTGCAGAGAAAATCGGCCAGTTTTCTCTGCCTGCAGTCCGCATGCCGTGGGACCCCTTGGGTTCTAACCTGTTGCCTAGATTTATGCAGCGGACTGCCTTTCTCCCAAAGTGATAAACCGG…AGGTTGGTTTCACT; site = the 11-nt donor
Could you respond with only the numeric value?

Solved entries (count: 5):
{"CHAIN": "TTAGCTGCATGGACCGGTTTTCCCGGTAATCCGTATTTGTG (site TTAACTGCTCA)", "MEASURE_NAME": "recombinant UMI read abundance (log10)", "REPORTED_MEASUREMENT": 0.0107}
{"CHAIN": "GGCTCAGCATGGACCGGTTTTCCCGGTAATCCGTATTTGGG (site TGCTCAGCTCC)", "MEASURE_NAME": "recombinant UMI read abundance (log10)", "REPORTED_MEASUREMENT": 0.00932}
{"CHAIN": "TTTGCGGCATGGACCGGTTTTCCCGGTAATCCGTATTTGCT (site TTTGCTGCTAG)", "MEASURE_NAME": "recombinant UMI read abundance (log10)", "REPORTED_MEASUREMENT": 0}
{"CHAIN": "CATTGCTCATGGACCGGTTTTCCCGGTAATCCGTATTTGAA (site CAGTGCTCTTT)", "MEASURE_NAME": "recombinant UMI read abundance (log10)", "REPORTED_MEASUREMENT": 0.351}
{"CHAIN": "AATGATCCATGGACCGGTTTTCCCGGTAATCCGTATTTGCG (site AATGATCCTCG)", "MEASURE_NAME": "recombinant UMI read abundance (log10)", "REPORTED_MEASUREMENT": 0.677}

Asked: Would you kindly share the measured recombinant UMI read abundance (log10) for GGTCCTACATGGACCGGTTTTCCCGGTAATCCGTATTTGTA (site GGTCCAACTTA) ?
Given back: 0.00723

====

In this section, each of the sequences is paired with its reported recombinant UMI read abundance (log10).
test: recombinant UMI read abundance after kanamycin selection (control-corrected) (log10(CPM+1)); higher = more efficient recombination; extreme values may be limits of the assay; sequences stand for … in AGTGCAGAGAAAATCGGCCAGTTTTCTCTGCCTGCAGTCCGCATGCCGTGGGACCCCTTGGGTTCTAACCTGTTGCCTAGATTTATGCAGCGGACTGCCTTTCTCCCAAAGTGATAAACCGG…AGGTTGGTTTCACT; site = the 11-nt donor
Please give only the number in your answer, with no unit.

# example entries with known answers
{"CHAIN": "GCGTAATCATGGACCGGTTTTCCCGGTAATCCGTATTTGCC (site GCGTAATCTGG)", "recombinant UMI read abundance (log10)": 2.11}
{"CHAIN": "CGGTATCCATGGACCGGTTTTCCCGGTAATCCGTATTTGTT (site CGGTATCCTAA)", "recombinant UMI read abundance (log10)": 0.562}
{"CHAIN": "GCACGATCATGGACCGGTTTTCCCGGTAATCCGTATTTGTA (site GCACGATCTTA)", "recombinant UMI read abundance (log10)": 2.74}

Asked: Would you mind telling me what recombinant UMI read abundance (log10) value was observed for GAAGTGGCATGGACCGGTTTTCCCGGTAATCCGTATTTGGT (site GTAGTGGCTAC) ?
Given back: 0.882

Asked: Can you check ACATAGACATGGACCGGTTTTCCCGGTAATCCGTATTTGGG (site ACATAGACTCC) next?
Given back: 0.469

Asked: Try this sequence next: ACATTTACATGGACCGGTTTTCCCGGTAATCCGTATTTGTG (site ACATATACTCA)
Given back: 0.00866

Asked: And what about the sequence CGAGCAGCATGGACCGGTTTTCCCGGTAATCCGTATTTGCT (site CCAGCAGCTAG) ?
Given back: 0.0072

Asked: Proceed to AGAAAGGCATGGACCGGTTTTCCCGGTAATCCGTATTTGCC (site AGAAAGGCTTG)
Given back: 1.79

Asked: Follow-up entry: CTGGCGTCATGGACCGGTTTTCCCGGTAATCCGTATTTGAG (site CTGGCGTCTCT)
Given back: 0.929

Asked: And then TAGCTAGCATGGACCGGTTTTCCCGGTAATCCGTATTTGAG (site TAGCTAGCTTT) , what is it?
Given back: 0.014

Asked: And what about the sequence TCTGATACATGGACCGGTTTTCCCGGTAATCCGTATTTGCT (site TCTGATACTAG) ?
Given back: 0

Asked: CAGCCTTCATGGACCGGTTTTCCCGGTAATCCGTATTTGGT (site GAGCCTTCTAC) , same question.
Given back: 0.00376

Asked: Now consider ACCGTATCATGGACCGGTTTTCCCGGTAATCCGTATTTGCT (site ACCGTATCTAG) .
Given back: 2.39

Asked: Please do the same for CCCCACACATGGACCGGTTTTCCCGGTAATCCGTATTTGTT (site CCCCACACTTA) as well.
Given back: 0.396

Asked: Do the same for GCAGTGGCATGGACCGGTTTTCCCGGTAATCCGTATTTGGT (site GCAGTGGCTAC) please
Given back: 0.668

Asked: Same question for CAAGCCCCATGGACCGGTTTTCCCGGTAATCCGTATTTGTG (site CAAGCCCCTCA) please.
Given back: 0.0397

Asked: Lookup TAGCTAGCATGGACCGGTTTTCCCGGTAATCCGTATTTGGA (site TAGCTAGCTTG)
Given back: 0.447

Asked: What do you have for GGCTAGGCATGGACCGGTTTTCCCGGTAATCCGTATTTGGT (site CGCTAGGCTAC) ?
Given back: 0.399
